# target: T1, human LAG3, full length, stably expressed on cells (human, UniProt P18627 23-525)
# T1 construct: whole, on cells; also called CHOK1-human LAG3
# T1 sequence (looked up): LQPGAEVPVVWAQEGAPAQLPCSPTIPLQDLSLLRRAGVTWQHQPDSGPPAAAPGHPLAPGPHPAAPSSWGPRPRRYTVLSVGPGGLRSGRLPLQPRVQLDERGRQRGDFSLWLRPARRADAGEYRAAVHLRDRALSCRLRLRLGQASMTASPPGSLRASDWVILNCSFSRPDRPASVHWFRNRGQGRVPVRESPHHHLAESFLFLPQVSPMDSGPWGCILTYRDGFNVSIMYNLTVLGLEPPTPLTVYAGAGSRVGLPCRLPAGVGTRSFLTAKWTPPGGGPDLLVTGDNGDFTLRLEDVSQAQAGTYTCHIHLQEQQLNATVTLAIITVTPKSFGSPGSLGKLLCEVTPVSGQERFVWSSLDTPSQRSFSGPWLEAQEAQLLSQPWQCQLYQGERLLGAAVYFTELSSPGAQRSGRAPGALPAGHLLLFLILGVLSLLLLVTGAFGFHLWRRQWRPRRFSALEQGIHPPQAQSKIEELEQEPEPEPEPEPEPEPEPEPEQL
# experimentDescription: FACS on CHOK1 cells stably expressing human LAG3

- binder: "021c (antibody, human IgG4, V domains shown, human IgG4 S228P / kappa chimeric antibody; also called chimeric antibody 021; not shown: human kappa light chain constant region (pcDNA3.4-hIgGk vector)) VH: DIQLQESGPGLVKPSQSLSLTCSVTGYSITSGYYWNWIRQFPGNKLEWMGDISYDGGNNYNPSLKNRISITRDTSKNQFFLKLNSVTTEDTATYYCARDITLTGAMDYWGQGTSVTVSS VL: DIVLTQSPASLAVSLGQRATISCRASESVDNYGISFMHWYQQRPGQPPKLLIYRASNLESGIPARFSGSGSRTDFTLTINPVETDDVATYYCQQSNKDPYTFGGGTKLEIK"
  TOP MFI: 620
- binder: "hu021.212 (antibody, V domains shown, humanized from 021c) VH: QVQLQESGPGLVKPSQTLSLTCTVSGYSISSGYYWNWIRQHPGNKLEWIGDISYEGGNNYNPSLKNRVTISRDTSKNQFSLKLSSVTAADTAVYYCARDITLTGAMDYWGQGTTVTVSS VL: EIVLTQSPATLSLSPGERATLSCRASESVDNYGISFMHWYQQKPGQAPRLLIYRASNLETGIPARFSGSGSRTDFTLTISSLEPEDFAVYYCQQSNKDPYTFGQGTKLEIK"
  TOP MFI: 586
- binder: "hu021.279 (antibody, V domains shown, humanized from 021c; also called hu21.279) VH: QIQLQESGPGLVKPGQTLSLTCTVSGYSITSGYYWTWIRQHPGNKLEWIGDISYDAGNNYNPSLKNRITISRDTSKNQFSLKLSSVTAEDTATYYCARDITLTGAMDYWGQGTTVTVSS VL: EIVLTQSPATLSLSPGERATLSCRASESVDNYGISFMHWYQQKPGQAPRLLIYRASNLESGIPARFSGSGSGTDFTLTISSLEPEDFAVYYCQQSNKDPYTFGQGTKLEIK"
  TOP MFI: 669
- binder: "hu021.269 (antibody, V domains shown, humanized from 021c) VH: QVQLQESGPGLVKPSQTLSLTCTVSGYSITSGYYWNWIRQHPGNKLEWIGDISYDGGNNYNPSLKNRVTISRDTSKNQFSLKLSSVTAADTAVYYCARDITLTGAMDYWGQGTTVTVSS VL: EIVLTQSPATLSLSPGERATLSCRASESVDNYGISFMHWYQQKPGQAPRLLIYRASNRESGIPARFSGSGSRTDFTLTISSLEPEDFAVYYCQQSNKDPYTFGQGTKLEIK"
  TOP MFI: 598
